# experimentalProtocol: Distribution coefficient, log D of the compound
# setupConditions: octanol/water

- compound: "Cc1c(F)c(N2CCNC(C)C2)cc2c1c(=O)c(C(=O)O)cn2C1CC1 (stereo not drawn) [GREPAFLOXACIN]"
  logD: 0.03
- compound: "C[C@H]1COc2c(N3CCN(C)CC3)c(F)cc3c(=O)c(C(=O)O)cn1c23.C[C@H]1COc2c(N3CCN(C)CC3)c(F)cc3c(=O)c(C(=O)O)cn1c23.O [LEVOFLOXACIN]"
  logD: -0.41
- compound: "CCn1cc(C(=O)O)c(=O)c2cc(F)c(N3CCNCC3)cc21 [NORFLOXACIN]"
  logD: -1.16
